This collection of values is drawn from patent US20130261131A1.

Assay: PK study of antifungal nasal spray, plasma level after intranasal dosing
Format: in vivo, Gottingen mini-pigs
Details: both sexes, Gottingen, minipig, plasma, other: intranasal, 0.08 hour after intranasal dosing, 5% PEG-12 GDM in saline, individual animals; read-out: Posaconazole Level in Mini-pig Plasma
experimental_readout: concentration at 0.08 h (ng/mL)
Just the number in ng/mL, nothing appended.

Reported concentration at 0.08 h of CC[C@@H]([C@H](C)O)n1ncn(-c2ccc(N3CCN(c4ccc(OC[C@@H]5CO[C@@](Cn6cncn6)(c6ccc(F)cc6F)C5)cc4)CC3)cc2)c1=O [POCZ, posaconazole] : 1.35

----------
Test: PK study of antifungal nasal spray, plasma level after intranasal dosing
Format: in vivo, Gottingen mini-pigs
Settings: both sexes, Gottingen, minipig, plasma, other: intranasal, 1 hour after intranasal dosing, 5% PEG-12 GDM in saline, individual animals; read-out: Posaconazole Level in Mini-pig Plasma
experimental_readout: concentration at 1 h (ng/mL)
Field format: number, assumed ng/mL, no unit text.

Item: CC[C@@H]([C@H](C)O)n1ncn(-c2ccc(N3CCN(c4ccc(OC[C@@H]5CO[C@@](Cn6cncn6)(c6ccc(F)cc6F)C5)cc4)CC3)cc2)c1=O [POCZ, posaconazole] | concentration at 1 h: 1.62
